# tested_target: human NaV 1.8 channels stably expressed in HEK 293 cells (Homo sapiens (Human), UniProt Q9Y5Y9)
# Sequence (Q9Y5Y9 whole entry): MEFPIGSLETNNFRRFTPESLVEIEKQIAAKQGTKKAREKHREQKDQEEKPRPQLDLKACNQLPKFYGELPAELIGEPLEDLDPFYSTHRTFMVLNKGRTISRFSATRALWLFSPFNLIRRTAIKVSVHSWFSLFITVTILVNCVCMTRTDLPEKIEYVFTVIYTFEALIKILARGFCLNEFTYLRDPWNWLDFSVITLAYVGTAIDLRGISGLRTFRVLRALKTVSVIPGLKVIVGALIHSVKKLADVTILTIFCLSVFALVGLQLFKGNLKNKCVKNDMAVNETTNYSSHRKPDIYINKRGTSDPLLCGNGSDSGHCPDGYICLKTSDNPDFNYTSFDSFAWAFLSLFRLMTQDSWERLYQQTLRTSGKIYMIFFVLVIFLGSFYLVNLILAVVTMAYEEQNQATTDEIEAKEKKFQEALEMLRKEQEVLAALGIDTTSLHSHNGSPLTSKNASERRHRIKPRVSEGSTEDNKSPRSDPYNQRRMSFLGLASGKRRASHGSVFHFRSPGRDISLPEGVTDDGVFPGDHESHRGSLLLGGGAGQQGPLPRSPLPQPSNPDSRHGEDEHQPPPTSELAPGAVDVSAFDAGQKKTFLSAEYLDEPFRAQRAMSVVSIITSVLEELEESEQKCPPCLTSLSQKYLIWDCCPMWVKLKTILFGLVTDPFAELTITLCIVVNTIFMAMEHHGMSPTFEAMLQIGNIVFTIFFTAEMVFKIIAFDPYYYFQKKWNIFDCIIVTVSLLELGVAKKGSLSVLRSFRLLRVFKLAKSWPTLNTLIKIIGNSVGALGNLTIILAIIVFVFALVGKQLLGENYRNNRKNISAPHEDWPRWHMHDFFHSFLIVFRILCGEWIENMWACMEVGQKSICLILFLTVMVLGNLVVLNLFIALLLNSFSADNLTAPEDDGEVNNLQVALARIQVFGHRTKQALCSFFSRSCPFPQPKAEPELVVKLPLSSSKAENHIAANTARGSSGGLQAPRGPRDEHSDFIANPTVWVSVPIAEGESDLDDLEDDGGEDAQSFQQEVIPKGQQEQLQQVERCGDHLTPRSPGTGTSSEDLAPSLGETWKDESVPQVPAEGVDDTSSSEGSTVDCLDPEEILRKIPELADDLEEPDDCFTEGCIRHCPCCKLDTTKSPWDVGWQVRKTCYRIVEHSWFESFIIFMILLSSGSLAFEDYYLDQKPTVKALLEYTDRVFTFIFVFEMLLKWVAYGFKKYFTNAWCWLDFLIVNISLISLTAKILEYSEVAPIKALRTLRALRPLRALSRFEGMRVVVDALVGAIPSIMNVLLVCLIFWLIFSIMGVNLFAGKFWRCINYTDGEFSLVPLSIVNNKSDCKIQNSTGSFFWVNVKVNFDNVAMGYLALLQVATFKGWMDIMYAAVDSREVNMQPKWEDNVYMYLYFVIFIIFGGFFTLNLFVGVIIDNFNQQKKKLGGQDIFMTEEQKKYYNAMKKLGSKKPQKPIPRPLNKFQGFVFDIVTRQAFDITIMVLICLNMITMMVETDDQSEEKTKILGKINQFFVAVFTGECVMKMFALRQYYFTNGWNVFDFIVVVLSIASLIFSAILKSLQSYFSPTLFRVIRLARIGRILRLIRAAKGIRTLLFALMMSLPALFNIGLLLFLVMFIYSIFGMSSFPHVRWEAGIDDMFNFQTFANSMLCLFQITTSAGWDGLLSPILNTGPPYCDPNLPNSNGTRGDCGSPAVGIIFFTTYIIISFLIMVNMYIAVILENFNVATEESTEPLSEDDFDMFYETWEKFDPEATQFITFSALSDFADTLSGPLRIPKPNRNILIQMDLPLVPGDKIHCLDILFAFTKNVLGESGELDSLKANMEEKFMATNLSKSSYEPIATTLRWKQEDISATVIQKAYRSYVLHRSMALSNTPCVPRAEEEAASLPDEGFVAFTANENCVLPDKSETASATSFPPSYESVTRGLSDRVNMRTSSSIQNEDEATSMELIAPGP
# assay_overview: Nav1.8 Qube automated patch-clamp assay
# Type: cell-based
# assay_context: human NaV1.8 in HEK 293 cells, whole-cell voltage clamp, room temperature; read-out: IC50 values (nM) for Examples in the Nav1.8 Qube Assay
assay_endpoint: IC50 (nM)

[[record]]
compound = "C[C@@H]1C(=O)NCCN1C(=O)NC(c1ccc(OC(F)(F)F)c(F)c1)c1cnc(C(F)(F)F)c(Cl)c1 (single isomer, unassigned) [Example 21B]"
experimental_value = 7.71

[[record]]
compound = "C[C@@H]1C(=O)NCCN1C(=O)NC(c1ccc(F)c(Cl)c1)c1cc(C(F)(F)F)n[nH]1 (single isomer, unassigned) [Example 85A]"
experimental_value = 57.8

[[record]]
compound = "C[C@@H]1C(=O)NCCN1C(=O)NC(c1ccc(OC2CC2)c(F)c1)c1ccc(F)c(C(F)(F)F)n1 (single isomer, unassigned) [Example 59B]"
experimental_value = 31.8

[[record]]
compound = "C[C@@H]1C(=O)NCCN1C(=O)NC(c1ccc(C(F)(F)F)nc1)c1ccc(Cl)c(C(F)(F)F)n1 (single isomer, unassigned) [Example 81B]"
experimental_value = 110

[[record]]
compound = "C[C@@H]1C(=O)NCCN1C(=O)NC(c1ccc(Cl)c(C#N)c1)c1ccc(F)c(C(F)(F)F)n1 (single isomer, unassigned) [Example 52A]"
experimental_value = 5.79

[[record]]
compound = "C[C@@H]1C(=O)NCCN1C(=O)NC(c1ccc(C(F)(F)F)nc1)c1ccc(Cl)c(Cl)c1F (single isomer, unassigned) [Example 29B]"
experimental_value = 3.42

